system-under-test: BauA (Acinetobacter baumannii, UniProt Q76HJ9)
Sequence (Q76HJ9 entry or part of it): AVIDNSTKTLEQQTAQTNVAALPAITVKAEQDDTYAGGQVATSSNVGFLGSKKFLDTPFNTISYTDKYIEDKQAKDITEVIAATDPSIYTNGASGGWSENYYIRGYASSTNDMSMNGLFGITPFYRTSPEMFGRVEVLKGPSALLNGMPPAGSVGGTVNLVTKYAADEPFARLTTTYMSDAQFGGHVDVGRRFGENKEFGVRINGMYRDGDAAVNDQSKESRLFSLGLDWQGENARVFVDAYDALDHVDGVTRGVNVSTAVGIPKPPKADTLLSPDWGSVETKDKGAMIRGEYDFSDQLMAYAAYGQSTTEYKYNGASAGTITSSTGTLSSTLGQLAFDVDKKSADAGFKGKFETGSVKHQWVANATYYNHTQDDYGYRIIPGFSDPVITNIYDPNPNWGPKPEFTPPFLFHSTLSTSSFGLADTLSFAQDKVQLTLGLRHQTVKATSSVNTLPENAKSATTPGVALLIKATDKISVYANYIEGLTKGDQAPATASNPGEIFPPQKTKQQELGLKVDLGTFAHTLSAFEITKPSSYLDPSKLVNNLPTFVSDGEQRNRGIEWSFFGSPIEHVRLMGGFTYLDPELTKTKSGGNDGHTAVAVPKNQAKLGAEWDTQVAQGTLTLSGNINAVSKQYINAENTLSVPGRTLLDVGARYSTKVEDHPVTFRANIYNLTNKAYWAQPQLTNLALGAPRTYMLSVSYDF
value-type: Kd

C[C@H]1OC(c2cccc(O)c2O)=N[C@@H]1C(=O)N(O)CCc1cnc[nH]1 [preacinetobactin] : 83 nM

Each recorded value in this set is attributed to paper PMC6300358.
